System: biotinyl-Met-oxazolone
Test: self-aminoacylation, catalytic enhancement (BMO) (fold over background); higher = more active; k-Seq, kA / k0A0; sequences stand for … in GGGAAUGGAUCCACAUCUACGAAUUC…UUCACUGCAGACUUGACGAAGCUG
Variants at the floor of the assay were thinned out.
Readout name: self-aminoacylation
API doc: respond with a numeric literal and nothing else, no unit.

Input line: State the recorded self-aminoacylation for this entry: AUCACACUGGUCAUCGAGUGA [Fam2.1 aminoacylation ribozyme variant]
Output line: 6.51

Input line: Repeat with GUACUUCAAACAAACGGUCUG [Fam1A.1 aminoacylation ribozyme variant]
Output line: 1.22

Input line: Repeat with AUUCACCUAGGUCAGCGGCUG [Fam2.2 aminoacylation ribozyme variant]
Output line: 2.5

Input line: Repeat with AAGUUUGCUAGUAGUCACAAG [Fam3.1 aminoacylation ribozyme variant]
Output line: 1.43

Input line: Repeat with UUUACCCUGGUCAUAGAGUGA [Fam2.1 aminoacylation ribozyme variant]
Output line: 5.18
